Tested on: P. falciparum stage V gametocytes
Parameters: BacTiter-Glo ATP luminescence viability of purified stage V gametocytes in 384-well plates, per cent inhibition versus DMSO
conditions used: 48 h, 5 µM; inhibitor
Among all 13,000 compounds or so, about 3,200 (25%) showed an effect of 50% or more. The list shows a part of the results.
endpoint label: % Inhibition (%)
Give the quantity in %, number only.

compound	number
COc1ccc(Nc2ncc3c(-c4ccc(NC(=O)c5cccc(C(F)(F)F)c5)cc4)c[nH]c3n2)cc1OC	-42.22

Entry CCOc1ccc(NC(=O)c2ccc(NCCCN3CC(C)CC(C)C3)c([N+](=O)[O-])c2)cc1 (centres unmarked) , system P. falciparum stage V gametocytes: what % Inhibition was measured?
30.09

Entry CC1CCN(CCCNc2ccc(C(=O)Nc3ccc(C(F)(F)F)cc3)cc2[N+](=O)[O-])CC1 , system P. falciparum stage V gametocytes: what % Inhibition was measured?
88.85

Entry O=C(COc1ccc(C(=O)c2ccccc2)cc1)Nc1nccs1 , system P. falciparum stage V gametocytes: what % Inhibition was measured?
-13.79

Entry CCOc1ccc(S(=O)(=O)N(C)c2ccc(OCC(=O)Nc3nccs3)cc2)cc1 , system P. falciparum stage V gametocytes: what % Inhibition was measured?
21.93

Entry CC1CC(C)CN(CCCNc2ccc(C(=O)Nc3ccc(C(F)(F)F)cc3)cc2[N+](=O)[O-])C1 (centres unmarked) , system P. falciparum stage V gametocytes: what % Inhibition was measured?
38.66

Entry CCCN(CCC)CCCNc1ccc(C(=O)Nc2ccc(OCC)cc2)cc1[N+](=O)[O-] , system P. falciparum stage V gametocytes: what % Inhibition was measured?
12.73

Entry COc1c(Br)cc(Br)cc1-c1ccc(CN2C3CCCC2CCC3)[nH]1 , system P. falciparum stage V gametocytes: what % Inhibition was measured?
-8.76

----------
Test system: P. falciparum stage V gametocytes
Set-up: BacTiter-Glo ATP luminescence viability of purified stage V gametocytes in 384-well plates, per cent inhibition versus DMSO
conditions used: 48 h, 5 µM; inhibitor
The whole screen tested about 13,000 compounds, of which about 3,200 (25%) showed an effect of 50% or more. The list shows a part of the results.
Rule: % Inhibition of 20% or more gives Satisfied; anything lower gives Not satisfied.

Illustrative cases are given below, each with its answer.
molecule	classification
COc1ccc(Cl)cc1-c1nc(C(=O)NCCN2CCCCC2)c(C)s1	Satisfied
COc1cc(C=CC(=O)NC2CCC(CN3CCC(c4c[nH]c5ccccc45)CC3)CC2)cc(OC)c1 (stereo not shown)	Not satisfied
COc1ccc(C2CCN(CCCCNC(=O)c3ccc(NC(=O)c4ccc(Cl)cc4)cc3)CC2)c(OC)c1	Satisfied

# bool: % Inhibition of Cc1ccc(-n2c(C)cc(C(=O)CN3C(=O)NC(Cc4ccccc4)C3=O)c2C)cc1 (stereo not shown) >= 20%
Not satisfied

# bool: % Inhibition of COc1ccc(Cl)cc1-c1nc(C(=O)NCCN2CCCCC2)c(C(C)C)s1 >= 20%
Not satisfied

# bool: % Inhibition of CCc1cc2c(cc1CC)CC(NC[C@@H](O)c1ccc(O)c3[nH]c(=O)ccc13)C2 >= 20%
Not satisfied

# bool: % Inhibition of CCOc1cc(C)ccc1C1CCN(CCCCNC(=O)c2ccc(NC(=O)c3cc(Cl)cc(Cl)c3)cc2)CC1 >= 20%
Not satisfied

# bool: % Inhibition of CCOc1ccc(C2CCN(CCCCNC(=O)c3ccc(NC(=O)c4ccc(Cl)cc4)cc3)CC2)c(CC)c1 >= 20%
Satisfied

# bool: % Inhibition of N#Cc1ccc(N(CCOc2ccc(Cl)c(F)c2)Cc2ccccc2C(F)(F)F)cc1C(F)(F)F >= 20%
Not satisfied

# bool: % Inhibition of CCOc1cc(C(C)C)ccc1C1CCN(CCCCNC(=O)c2ccc(NC(=O)c3ccc(Cl)cc3)cc2)CC1 >= 20%
Satisfied

# bool: % Inhibition of CCc1cc(OC)ccc1C1CCN(CCCCNC(=O)c2ccc(NC(=O)c3ccc(Cl)cc3)cc2)CC1 >= 20%
Not satisfied

# bool: % Inhibition of O=C(Nc1ccc(C(=O)OCC2CCCCC2)cc1)N[C@@H](Cc1ccc(O)cc1)C(=O)NC1CCN(Cc2ccc(O)cc2)C1 (stereo partly shown) >= 20%
Not satisfied

# bool: % Inhibition of CC(C)c1ncc(-c2ccncc2)c(C2CCC(CNC(=O)c3cccnc3)CC2)n1 (stereo not shown) >= 20%
Not satisfied

# bool: % Inhibition of O=C(Nc1ccc(Cl)c(Cl)c1)N1CCC(CNCc2cccc([N+](=O)[O-])c2)CC1 >= 20%
Not satisfied

# bool: % Inhibition of CC(C)C[C@@H](/C=N/N1CC(=O)NC1=O)NC(=O)[C@H](CC(C)C)NC(=O)c1ccc(OCCN2CCOCC2)cc1 >= 20%
Not satisfied

# bool: % Inhibition of O=C(/C=C/c1ccc(Cl)c(Cl)c1)NCCCCN1CCCN(C(=O)Nc2cc(Cl)cc(Cl)c2)CC1 >= 20%
Not satisfied

Values were extracted from paper PMC4552634.
